B1: CPEB3 Ribozyme (parent)
chain: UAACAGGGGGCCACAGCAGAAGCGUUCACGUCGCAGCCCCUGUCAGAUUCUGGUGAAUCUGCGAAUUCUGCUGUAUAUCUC

- Variants of: B1
- method: self-cleavage, relative activity (ratio to wild type); higher = more cleavage; in vitro, sequencing
quantityKind: self-cleavage

A20U C81U : 0.32
A35U U54C : 0.5
G19C U48C : 0.35
A28G U54C : 0.58
G24A C39U : 0.17
G8A C71A : 0.17
A28G U66C : 0.26
A21U C44A : 0.11
G10U U26A : 0.32
C4U U31A : 0.82
C23U U41A : 0.12
U26C U69A : 0.26
U1A A77U : 1.05
A5U A64G : 1.03
C29U U58A : 0.43
C50U A65G : 0.4
A15G C79G : 1.26
G8A U78A : 0.37
U26C C29U : 0.29
G61U U76A : 0.39
G6U U60C : 0.24
U43G A45G : 0.19
C40A A65G : 0.31
A5U U41A : 0.33
G19U C32G : 0.19
C11A U54G : 0.21
A65U U78C : 0.18
U1A U43A : 1.08
G36C U43C : 0.28
A21G A35C : 0.13
A15C A47G : 0.85
C4U A45U : 0.47
A20G A65C : 0.13
G33U G61C : 0.13
A13U A65G : 0.61
A35G U76C : 1.29
A64C U67C : 0.2
G30A A45C : 0.17
G8A U60A : 0.18
U26C U72A : 0.36
A56U U60G : 0.24
G16U A18G : 0.29
